// data source = patent US11166958B2

In this section we review reported efflux ratio at 2 h values for a set of compounds.
Biological target: human MDR1 (P-gp) (Homo sapiens (Human), UniProt P08183)
Sequence (P08183 whole entry): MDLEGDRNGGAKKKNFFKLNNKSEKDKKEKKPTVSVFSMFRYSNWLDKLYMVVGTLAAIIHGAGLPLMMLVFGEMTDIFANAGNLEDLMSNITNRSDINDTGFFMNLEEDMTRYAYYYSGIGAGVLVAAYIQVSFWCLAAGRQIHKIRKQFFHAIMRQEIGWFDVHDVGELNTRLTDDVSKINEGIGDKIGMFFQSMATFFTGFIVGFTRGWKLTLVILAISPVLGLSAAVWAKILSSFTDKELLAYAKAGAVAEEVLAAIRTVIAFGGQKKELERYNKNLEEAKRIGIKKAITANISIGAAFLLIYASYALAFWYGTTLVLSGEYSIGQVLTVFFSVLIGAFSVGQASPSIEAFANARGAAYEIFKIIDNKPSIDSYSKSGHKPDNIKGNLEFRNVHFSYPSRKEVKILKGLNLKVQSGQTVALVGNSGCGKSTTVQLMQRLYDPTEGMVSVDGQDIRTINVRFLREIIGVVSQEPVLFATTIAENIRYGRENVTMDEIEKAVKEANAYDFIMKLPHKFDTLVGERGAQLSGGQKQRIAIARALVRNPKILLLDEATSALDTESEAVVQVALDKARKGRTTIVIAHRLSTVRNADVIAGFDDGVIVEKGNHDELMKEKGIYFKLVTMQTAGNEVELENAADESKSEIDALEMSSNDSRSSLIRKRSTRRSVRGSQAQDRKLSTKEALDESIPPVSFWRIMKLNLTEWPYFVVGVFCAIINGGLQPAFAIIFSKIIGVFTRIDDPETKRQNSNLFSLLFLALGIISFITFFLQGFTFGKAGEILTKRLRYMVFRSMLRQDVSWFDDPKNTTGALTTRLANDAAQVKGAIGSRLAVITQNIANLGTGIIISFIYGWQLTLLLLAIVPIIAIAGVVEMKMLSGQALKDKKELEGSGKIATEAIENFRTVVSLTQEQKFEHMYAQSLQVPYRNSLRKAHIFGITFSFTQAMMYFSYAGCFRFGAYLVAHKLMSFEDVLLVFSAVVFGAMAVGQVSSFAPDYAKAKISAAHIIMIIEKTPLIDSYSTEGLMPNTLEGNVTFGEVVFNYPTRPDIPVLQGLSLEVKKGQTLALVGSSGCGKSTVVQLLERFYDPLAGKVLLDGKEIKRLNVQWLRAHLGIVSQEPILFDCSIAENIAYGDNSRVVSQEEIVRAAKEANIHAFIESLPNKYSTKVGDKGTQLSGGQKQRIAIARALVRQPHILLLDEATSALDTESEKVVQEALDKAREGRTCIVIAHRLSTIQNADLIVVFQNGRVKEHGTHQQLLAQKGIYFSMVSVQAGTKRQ
Experiment: MDCK assay P-gp: permeability across MDCK-MDR1 monolayers
Format: in vitro ADME
Details: pH 7.4, MDCK-MDR1, Papp (b-a) / Papp (a-b), read-out: efflux ratio PEBA/PEAB
Endpoint: efflux ratio at 2 h

Structure as smiles	Value observed
CNC(=O)[C@@H]1CN(Cc2cnc(Oc3ccc(C)cc3F)cn2)CCO1	0.6
CNC(=O)[C@@H]1CN(Cc2cnc(Oc3ccc(Cl)cc3)cn2)CCO1	0.7
CNC(=O)[C@@H]1CN(Cc2cnc(Oc3ccc(F)cc3F)cn2)CCO1	0.8
CNC(=O)[C@@H]1CN(Cc2cnc(Oc3ccc(Cl)cc3F)cn2)CCO1	0.8
CNC(=O)[C@@H]1CN(Cc2cnc(Oc3ccc(F)cc3C)cn2)CCO1	0.6
CNC(=O)[C@@H]1CN(Cc2cnc(Oc3ccccc3Cl)cn2)CCO1	0.8
CNC(=O)[C@@H]1CN(Cc2cnc(Oc3ccc(F)cc3)cn2)CCO1	0.7
CCNC(=O)[C@@H]1CN(Cc2cnc(Oc3ccc(C)cc3F)cn2)CCO1	0.6
CCNC(=O)[C@@H]1CN(Cc2cnc(Oc3ccccc3Cl)cn2)CCO1	0.7
